target: MCR-1 (Homo sapiens); construct: expressed in transfected cells; host or cells: HEK 293; test: Melanocortin receptor binding assay, competition with 125I-HP 467, HEK 293 cells expressing hMCR-1; conditions: inhibition of binding of 125I-HP 467, HEK 293 cells expressing MCR-1; read-out: MC-1 IC50
Sequence (Q01726 whole entry): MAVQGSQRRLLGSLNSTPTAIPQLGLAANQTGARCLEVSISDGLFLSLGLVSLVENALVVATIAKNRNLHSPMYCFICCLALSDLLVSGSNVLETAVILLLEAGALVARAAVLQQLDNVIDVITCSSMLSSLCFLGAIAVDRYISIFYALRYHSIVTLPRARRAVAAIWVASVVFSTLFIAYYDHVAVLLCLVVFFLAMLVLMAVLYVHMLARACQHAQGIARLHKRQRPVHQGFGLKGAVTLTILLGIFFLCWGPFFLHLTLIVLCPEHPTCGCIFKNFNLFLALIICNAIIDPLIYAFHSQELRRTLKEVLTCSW
pIC50: −log10 of the molar value.
observation type: pIC50

Sample records with pIC50:
compound	pIC50
CCCCNc1ccc(C2C(CNCCc3ccccc3)c3ccccc3CN2CCCC(CN)NCc2ccccc2)cc1 (stereo not shown) [TRG 2411-196]	6.92
CCNc1ccc(C2C(CNCCc3ccccc3)c3ccccc3CN2CCCC(CN)NCC2CC2CNC(C)C)cc1 (stereo not shown) [TRG 2420-5]	7.37

(a) CC(C)Oc1ccc(C2C(CO)c3ccccc3CN2CCCC(CN)NCCC2CCCCC2)cc1 (stereo not shown) [TRG 2415-5]
(b) CCNc1ccc(C2C(CNCCc3ccccc3)c3ccccc3CN2CCCC(CN)NC)cc1 (stereo not shown) [TRG 2411-151]
Enquiry: Please tell me which of the two, a or b , has the higher reported pIC50 value. Pick one and reply with its label.
Return: b

====

molecular target: MCR-1 (Homo sapiens); construct: expressed in transfected cells; host or cells: HEK 293; experiment: Melanocortin receptor binding assay, competition with 125I-HP 467, HEK 293 cells expressing hMCR-1; conditions: inhibition of binding of 125I-HP 467, HEK 293 cells expressing MCR-1; TRG 2414 library; read-out: MC-1 IC50
pIC50: −log10 of the molar value.
observation type: pIC50

Sample records with pIC50:
compound	pIC50
NCC(CCCCN1Cc2ccccc2C(CNC2CCCCCC2)C1c1cccc(Oc2ccccc2)c1)NCc1ccccc1 (stereo not drawn)	5.43
COc1ccc(CCNCC2c3ccccc3CN(CCCCC(CN)NCc3ccccc3)C2c2ccc(Oc3ccccc3)cc2)cc1 (stereo not drawn)	5.79
COc1ccccc1CCNCC1c2ccccc2CN(CCCCC(CN)NCCc2ccccc2)C1c1cc(C(F)(F)F)cc(C(F)(F)F)c1 (stereo not drawn)	5.09
NCC(CCCCN1Cc2ccccc2C(CNCc2ccccc2)C1c1cccc(Oc2ccccc2)c1)NCCc1ccccc1 (stereo not drawn)	4.95
NCC(N)CCCCN1Cc2ccccc2C(CNCc2ccccc2)C1c1cc(C(F)(F)F)cc(C(F)(F)F)c1 (stereo not drawn)	5.02

(A) CCOc1ccccc1CNCC1c2ccccc2CN(CCCCC(CN)NCCc2ccccc2)C1c1cccc(Oc2ccccc2)c1 (stereo not drawn)
(B) COc1ccc(CCNCC2c3ccccc3CN(CCCCC(N)CN)C2c2cc(C(F)(F)F)cc(C(F)(F)F)c2)cc1 (stereo not drawn)
(C) COc1ccccc1CCNCC1c2ccccc2CN(CCCCC(CN)NCc2ccccc2)C1c1ccc(Oc2ccccc2)cc1 (stereo not drawn)
Enquiry: Sort the 3 compounds by pIC50; largest first, smallest last. Respond with an ordered listing of the labels, as requested.
Return: C, B, A
(C: 5.78, B: 5.48, A: 4.93)

====

target: MCR-4 (Homo sapiens); construct: expressed in transfected cells; host or cells: HEK 293; assay: Melanocortin receptor binding assay, competition with 125I-HP 467, HEK 293 cells expressing hMCR-4; conditions: TRG 2408 and TRG 2409 libraries; inhibition of 125I-HP 467 binding; read-out: MC-4 IC50
Sequence (P32245 whole entry): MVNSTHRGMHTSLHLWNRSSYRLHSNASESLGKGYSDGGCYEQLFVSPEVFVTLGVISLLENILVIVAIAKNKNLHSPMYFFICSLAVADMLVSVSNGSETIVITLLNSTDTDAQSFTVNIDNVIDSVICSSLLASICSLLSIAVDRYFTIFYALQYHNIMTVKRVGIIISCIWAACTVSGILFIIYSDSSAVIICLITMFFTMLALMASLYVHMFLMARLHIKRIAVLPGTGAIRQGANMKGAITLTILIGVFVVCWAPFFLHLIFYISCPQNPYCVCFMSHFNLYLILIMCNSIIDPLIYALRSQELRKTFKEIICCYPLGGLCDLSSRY
observation type: IC50 (µM)

molecule	scale unit	result number
CCNc1ccc(C2C(CNC3CCCCC3)c3ccccc3CN2CCC(N)CN)cc1 (stereo not shown)	µM	28.1
CCNc1ccc(C2C(CNCc3ccccc3OC)c3ccccc3CN2CCC(CN)NCCN)cc1 (stereo not shown)	µM	21.7
CCNc1ccc(C2C(CNC3CCCCC3)c3ccccc3CN2CCC(CN)NCCN)cc1 (stereo not shown)	µM	16.3
CN[C@@H](CN)CCCCN1Cc2ccccc2C(CNC2CCCCC2)C1c1ccc(Cl)cc1Cl (stereo partly shown)	µM	8.28
CNCCNC(CN)CCN1Cc2ccccc2C(CNC2CCCCC2)C1c1ccc(Cl)cc1Cl (stereo not shown)	µM	9.06

(I) NC[C@H](CCCN1Cc2ccccc2C(CNC2CCCCC2)C1c1ccc(Cl)cc1Cl)NCCc1ccccc1 (stereo partly shown)
(II) NCC(CCCCN1Cc2ccccc2C(CNC2CCCCC2)C1c1ccc(-c2ccccc2)cc1)NCCc1ccccc1 (stereo not shown) [TRG 2408-22]
(III) CCNc1ccc(C2C(CNC3CCCCC3)c3ccccc3CN2CCCC(CN)NCCNC)cc1 (stereo not shown)
(IV) CNCCNC(CN)CCCCN1Cc2ccccc2C(CNC2CCCCC2)C1c1ccc(-c2ccccc2)cc1 (mixture of isomers)
Enquiry: Sort the 4 molecules by IC50; largest first, smallest last. Respond with an ordered listing of the labels, as requested.
Return: III, IV, II, I
